Data origin: the kinase profiling compilation of Christmann-Franck et al. (2016)

- system.name: UniProt Q9UK32
- Sequence (Q9UK32 whole entry, looked up): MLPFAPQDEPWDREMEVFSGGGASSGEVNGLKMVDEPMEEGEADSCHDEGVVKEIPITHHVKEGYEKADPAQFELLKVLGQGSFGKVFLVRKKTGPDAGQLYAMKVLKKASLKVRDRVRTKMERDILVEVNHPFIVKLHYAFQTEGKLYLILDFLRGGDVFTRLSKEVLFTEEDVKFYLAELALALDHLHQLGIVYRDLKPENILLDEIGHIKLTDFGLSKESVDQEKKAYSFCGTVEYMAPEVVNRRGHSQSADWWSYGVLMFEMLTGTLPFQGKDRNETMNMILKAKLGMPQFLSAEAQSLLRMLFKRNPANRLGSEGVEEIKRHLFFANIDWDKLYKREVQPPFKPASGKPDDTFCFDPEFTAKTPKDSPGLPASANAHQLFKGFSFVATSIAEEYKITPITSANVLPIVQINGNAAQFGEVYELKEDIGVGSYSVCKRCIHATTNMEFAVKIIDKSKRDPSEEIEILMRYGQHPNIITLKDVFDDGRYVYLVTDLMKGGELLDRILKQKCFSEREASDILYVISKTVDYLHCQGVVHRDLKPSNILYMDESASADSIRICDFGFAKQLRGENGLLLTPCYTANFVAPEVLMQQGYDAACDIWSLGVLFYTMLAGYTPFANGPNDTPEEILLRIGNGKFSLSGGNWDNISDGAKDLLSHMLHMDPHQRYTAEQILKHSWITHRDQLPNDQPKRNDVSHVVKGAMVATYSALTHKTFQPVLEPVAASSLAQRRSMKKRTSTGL
- assay.comment: KINOMEscan competition binding
- condition.context: compound 10.0 µM
// reported kinase still bound, per cent of control per item
Please state the number and follow it with the unit.

These solved cases illustrate the format of a correct answer.
> print(dat)
                                   compound  reported.result
1  O=C(O)c1ccc(Nc2ncc3c(n2)-c2ccc(Cl)cc2C(c2c(F)cccc2F)=NC3)cc1              36%
2  CCCS(=O)(=O)Nc1ccc(F)c(C(=O)c2c[nH]c3ncc(-c4ccc(Cl)cc4)cc23)c1F              82%
3             Cc1ccc2nc(NCCN)c3ncc(C)n3c2c1              88%
4  C=CC(=O)Nc1cc(NC(=O)c2ccc(C)c(NC(=O)c3ccno3)c2)cc(C(F)(F)F)c1              86%

Return kinase still bound, per cent of control measured with UniProt Q9UK32 given this compound: `O=C(NOC[C@H](O)CO)c1ccc(F)c(F)c1Nc1ccc(I)cc1F`
75%

Return kinase still bound, per cent of control measured with UniProt Q9UK32 given this compound: `N#Cc1c(NC(=O)c2cccc3ccccc23)sc2c1CCCC2`
70%

Return kinase still bound, per cent of control measured with UniProt Q9UK32 given this compound: `CCC(=O)N1CCN(c2ccc(-n3c(=O)ccc4cnc5ccc(-c6cnc7ccccc7c6)cc5c43)cc2C(F)(F)F)CC1`
66%
